Measured inhibition at 10 µM of individual entries
target under test: CDK9/Cyclin K (Homo sapiens)
Sequence (P50750 whole entry): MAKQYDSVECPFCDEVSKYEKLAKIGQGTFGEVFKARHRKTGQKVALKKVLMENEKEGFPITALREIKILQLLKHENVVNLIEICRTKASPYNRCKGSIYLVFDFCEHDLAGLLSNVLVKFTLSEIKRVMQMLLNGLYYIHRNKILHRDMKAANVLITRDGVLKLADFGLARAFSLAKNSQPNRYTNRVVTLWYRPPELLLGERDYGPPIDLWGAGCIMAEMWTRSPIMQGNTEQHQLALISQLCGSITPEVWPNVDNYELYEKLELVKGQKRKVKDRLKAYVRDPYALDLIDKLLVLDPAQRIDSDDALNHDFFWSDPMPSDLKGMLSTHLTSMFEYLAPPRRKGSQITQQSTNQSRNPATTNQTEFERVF
Sequence (O75909 whole entry partner): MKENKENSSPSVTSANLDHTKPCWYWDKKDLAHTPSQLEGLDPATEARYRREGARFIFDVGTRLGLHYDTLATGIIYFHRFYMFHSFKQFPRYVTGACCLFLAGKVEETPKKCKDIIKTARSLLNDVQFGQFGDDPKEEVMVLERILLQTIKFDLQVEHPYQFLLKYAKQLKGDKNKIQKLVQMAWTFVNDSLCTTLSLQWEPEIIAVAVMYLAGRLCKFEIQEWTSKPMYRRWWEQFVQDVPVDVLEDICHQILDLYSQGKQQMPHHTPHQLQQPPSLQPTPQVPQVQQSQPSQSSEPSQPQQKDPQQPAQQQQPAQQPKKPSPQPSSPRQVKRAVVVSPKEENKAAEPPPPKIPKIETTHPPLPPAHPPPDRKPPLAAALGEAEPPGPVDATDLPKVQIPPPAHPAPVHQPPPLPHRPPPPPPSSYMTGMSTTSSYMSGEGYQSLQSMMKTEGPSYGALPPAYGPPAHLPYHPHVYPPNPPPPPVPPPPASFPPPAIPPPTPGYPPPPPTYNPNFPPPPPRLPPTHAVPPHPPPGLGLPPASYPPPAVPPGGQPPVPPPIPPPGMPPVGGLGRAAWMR
method notes: NanoBRET live-cell target engagement, NanoLuc-CDK9/Cyclin K in HEK-293
Assay type: binding
stated conditions: 10µM; independent experiment 2; read-out: CDK9/K Inhibition at 10µM (%)
readout type: inhibition at 10 µM (%)

* CN1CCN(c2ccc(Nc3ncc4cc5n(c4n3)C3(CCCCC3)CNC5=O)nc2)CC1 [Trilaciclib] | 46.2
* COCCN1CCN(Cc2ccc(-c3n[nH]c4c3C(=O)c3c(NC(=O)NN5CCOCC5)cccc3-4)cc2)CC1 [RGB286638] | 98.8
* CN(C)C/C=C/C(=O)Nc1ccc(C(=O)N2CCC[C@@H](Nc3ncc(Cl)c(-c4c[nH]c5ccccc45)n3)C2)cc1 [THZ531] | 83.8
* CN1C/C=C/CCOc2cccc(c2)-c2ccnc(n2)Nc2cccc(c2)C1 [SB1317] | 99.2
* CC(C)[C@H](CO)Nc1nc(Nc2ccc(C(=O)O)c(Cl)c2)c2ncn(C(C)C)c2n1 [Purvalanol B] | 17.1
* CN(C)C(=O)c1cc2cnc(Nc3ccc(N4CCNCC4)cn3)nc2n1C1CCCC1 [Ribociclib] | 74.1
